Test system: M14 melanoma
Experiment: NCI tumour cell line growth inhibition, 48 h; in the data active means GI50 below about 0.43 µM; inactive means the rest
Answer with one of the outcomes active, inactive

C/C(=N\NC(=O)c1sc(=S)n(C)c1N)c1cc2ccccc2o1 = inactive
N=C(N)c1ccc(OCc2cccc(COc3ccc(C(=N)N)cc3)c2)cc1 = inactive
COC(=O)CCC(=O)C(=O)OC = inactive
Cc1cccc(NC(=O)CCc2ccc(N3C(N)=NC(N)=NC3(C)C)cc2)c1 = inactive
OC(c1cccc(-n2ccc(C(F)(F)F)n2)c1)c1cnccc1NC1CCCCCC1 (stereo not drawn) = inactive
F = inactive
Cn1cc(-c2ccc3c(Nc4cccc(NC(=O)Nc5cccc(F)c5)c4)ncnc3c2)cn1 = inactive
COc1ccc2[nH]c(=O)c3c4ccccc4cn3c2c1 = inactive
Cc1ccc2c(c1)C(C)Cc1c(ncnc1-n1cnc3ccccc31)N2C (stereo not drawn) = active
FC(F)(F)c1nc(N2CCCC2)ncc1-c1nnnn1-c1ccc(Cl)cc1 = inactive

I'd appreciate the recorded outcome for "O=C1C(Cl)=C(Nc2cccc(Cl)c2)C(=O)N1Cc1ccccc1" from this test. inactive

Which outcome was assigned to "CC(C)[C@]12O[C@H]1[C@@H]1O[C@]13[C@]1(O[C@H]1C[C@H]1C4=C(CC[C@@]13C)C(=O)OC4)[C@@H]2O" in this test? active

Check the results log: what was the call for "O=C(Nc1ccc(Cl)c(Cl)c1)c1cccc(NC2=C(Cl)C(=O)N(Cc3ccccc3)C2=O)c1" ? inactive

---

Test system: CAKI-1 renal
Assay: NCI tumour cell line growth inhibition, 48 h
Parameter TGI: see the listing below.

COc1ccc(/C=C2\CCCC(CN(C)C)C2=O)cc1 (centres undefined) = 3.15 µM

Given the entry COc1cccc(C2c3cc4c(cc3OC(C)(N3CCCC3)C2C)OCO4)c1OC (centres undefined) , report its measured TGI. 47.4 µM

Which TGI value is on record for N#Cc1c(-c2ccccc2)nc(SCC2CO2)nc1N1CCOCC1 (centres undefined) ? 17 µM

TGI for "CC(=O)N[C@@H](Cc1ccc(OP(=O)(O)O)cc1)C(=O)N[C@H]1CCC(=O)N2CCC[C@@H](C(=O)NCc3ccc(Cl)cc3)N2C1=O" ? > 25 µM

Given the entry "COc1cc2c3c(n(CCCN)c(=O)c2cc1OC)-c1ccccc1C3=O" , report its measured TGI. 2.94 µM

Requested read-out: TGI. Entry: "Cc1c(NC(=S)NN)c(=O)n(-c2ccccc2)n1C" > 100 µM

For the compound shown here, "Cc1nc(-c2cccc(Nc3nc(-c4ccc(Cl)cc4)cs3)c2)cs1" , give the reported TGI. 24.6 µM

Record request: TGI value, item "CC1(C)[C@H](C(=O)O)N2C(=O)[C@@H](NS(=O)(=O)c3ccc([N+](=O)[O-])cc3)[C@H]2S1(=O)=O" > 100 µM

Requested read-out: TGI. Entry: "NCCSc1nc2ccccc2s1" > 100 µM

Look up TGI: CCOc1ccccc1NC(=O)CC1C(=O)Nc2ccccc2S1=O (centres undefined) > 100 µM

Item "CCOC(=O)c1c2c(c(O)c3ccccc3c(O)n(Cc3ccc(OC)cc3)c1C)C(=O)C=CC2=O" has what recorded TGI? > 100 µM

What does the data say about its TGI? Entry: "Cn1cc(-c2ccc3c(Nc4cccc(NC(=O)Nc5cccc(F)c5)c4)ncnc3c2)cn1" 14.9 µM

Fill in the blank: the reported TGI of "CCOC(=O)c1ccc(Nc2cnc3cc(C(F)(F)F)ccc3n2)cc1" is ____. > 100 µM

Entry CN1C(=O)CC(c2cccc(C3CC(=O)N(C)C3=O)n2)C1=O (centres undefined) : reported TGI = ? > 100 µM

Entry under review: CC(NS(=O)(=O)c1ccc([N+](=O)[O-])cc1)C(=O)O (centres undefined) . Reported TGI? > 100 µM

Endpoint output: TGI of COc1cc(C2SCC(=O)N2c2cc(Cl)c(Cl)cc2Cl)cc(OC)c1OC (centres undefined) . Value? > 100 µM

Can you look up the measured TGI of "O=C1C(Cl)=C(Nc2cccc(Cl)c2)C(=O)N1Cc1ccccc1" for me? 27.7 µM

So what's the measured TGI for this one? CN(Cc1cnc2nc(N)nc(N)c2n1)c1ccc(C(=O)NC(CCC(=O)O)C(=O)O)cc1C(F)(F)F (centres undefined) > 100 µM

Name the reported TGI value associated with the compound "Nc1sc2c(c1C(=O)c1ccc(Cl)c(Cl)c1)CCCC2" > 100 µM

---

System: ACHN renal
Assay: NCI tumour cell line growth inhibition, 48 h; in the data active = GI50 below about 0.43 µM; inactive = the rest
Entry note: the call must match one of Y (active), N (inactive)

Observe how each entry below is paired with its result.
COc1ccc2oc(=O)cc(C(c3ccc[nH]3)c3ccc[nH]3)c2c1 = Y
O=C(Nc1ccc(Cl)c(Cl)c1)c1cccc(NC2=C(Cl)C(=O)N(Cc3ccccc3)C2=O)c1 = N

Turning now to a further compound:
// param item: CCSCC1CC(O)(c2ccccc2)C(c2ccccc2)C(c2ccc(Cl)cc2)O1 (stereo not drawn) ; yields the recorded call N

---

Test system: U251 CNS
Experiment: NCI tumour cell line growth inhibition, 48 h
# TGI per record follows
Your answer should be a plain number; it is taken to be in µM.

Please review the entries below; each comes with its answer.
CC1(C)N=C(N)N=C(N)N1c1cccc(CCCCc2cccc(S(=O)(=O)F)c2)c1 = 36
COc1cc(C(=O)/C=C/c2c(C)n([O-])c3ccc(C)cc3[n+]2=O)cc(OC)c1OC = 21
Cc1nc(-c2cccc(Nc3nc(-c4ccc(Cl)cc4)cs3)c2)cs1 = 16.4

Next, consider the following compound.
Give the measured TGI of "COc1ccc2nc3cc(Cl)ccc3c(NCCCN(Cc3cc(OC)c(OC)c(OC)c3)Cc3cc(OC)c(OC)c(OC)c3)c2c1" . 17.3

---

Tested on: M19-MEL melanoma
Assay: NCI tumour cell line growth inhibition, 48 h
outcome_measure: TGI

CC1CC(C2=CC=CCS2)=Nc2ccccc2S1 (stereo not given) = > 100 µM

Fill blank: measured TGI of the molecule "C/C(CN1C(=O)c2ccccc2C1=O)=N\NS(=O)(=O)c1ccc(C)cc1" is ____. > 100 µM

What value of TGI has been reported for the following molecule? CC1(C)CCC[C@@]2(C)C1CCC1(C)C(CCc3ccoc3)/C(=C/OS(=O)(=O)O)CCC12 (stereo not given in full) (tested in a mixture with another compound) > 100 µM

Please report the recorded TGI for "NC1=NC(=O)/C(=C/c2ccccc2[N+](=O)[O-])C(N)=N1" . > 100 µM

# query: TGI of entry CC1(C)CC23C4COC(=O)C2CCC1C3CC4=O (stereo not given) 40.7 µM

---

Tested on: M14 melanoma
Assay: NCI tumour cell line growth inhibition, 48 h
outcome_measure: TGI

C/C=C/[C@H]1O[C@@](O)([C@@H](C)[C@H](O)[C@H](C)[C@H]2OC(=O)/C(OC)=C/C(C)=C/[C@@H](C)[C@@H](O)[C@@H](CC)[C@@H](O)[C@H](C)C/C(C)=C/C=C/[C@@H]2OC)C[C@H](OC2CC(O)C(O)C(C)O2)[C@@H]1C (stereo partly drawn) = < 0.0075 µM

Can you share its TGI? I mean this compound: "O=C(Nc1c(O)[nH]c(=S)[nH]c1=O)c1ccccc1F" > 100 µM

Entry O=P1(C(O)/C=C/c2ccccc2)N(Cc2ccccc2)[C@H](c2ccccc2)[C@@H](c2ccccc2)N1Cc1ccccc1 (stereo partly drawn) : reported TGI = ? > 100 µM

---

Test system: SN12C renal
Assay: NCI tumour cell line growth inhibition, 48 h; in the data active = GI50 below about 0.43 µM; inactive = the rest
Choose one outcome from this list and give only that: active, inactive

Here are 3 compounds together with their reported answers.
O=C(Nc1cccc(-n2ccc3c(NC(=O)c4ccccc4)nccc32)c1)c1ccc(N2CCOCC2)c(C(F)(F)F)c1 = active
Clc1ccc(CSC(Cn2ccnc2)c2ccc(Cl)cc2Cl)cc1 (stereo not drawn) = inactive
O=C(Nc1ccc(Cl)c(Cl)c1)c1cccc(NC2=C(Cl)C(=O)N(Cc3ccccc3)C2=O)c1 = inactive

Entry Cc1ccc2c(c1)C(C)Cc1c(ncnc1-n1cnc3ccccc31)N2C (stereo not drawn) : call = ? inactive

Please state the recorded outcome for this compound: CCSCC1CC(O)(c2ccccc2)C(c2ccccc2)C(c2ccc(Cl)cc2)O1 (stereo not drawn) inactive

Would you mind telling me which call this test gave OC(c1cccc(-n2ccc(C(F)(F)F)n2)c1)c1cnccc1NC1CCCCCC1 (stereo not drawn) ? inactive

What outcome does the record of this test show for "Nc1c(C(=O)c2cccc(CCCN3CCOCC3)c2)cnn1-c1ccc(F)cc1" ? inactive

Could you kindly confirm the outcome this assay logged for "Cc1cccc(NC(=O)CCc2ccc(N3C(N)=NC(N)=NC3(C)C)cc2)c1" ? inactive

Assay outcome for "C/C(=N\NC(=O)c1sc(=S)n(C)c1N)c1cc2ccccc2o1" : what was it? inactive

Query: recorded result category for "COc1ccc(-c2cc(-c3cc(Cl)ccc3Cl)nc3n[nH]c(N)c23)cc1" in this test inactive

How did this test come out for "Cc1ccc([N+](=O)[O-])cc1NC(=O)Nc1cccc(F)c1" ? inactive

Please share the test call associated with "CCCCON(OC(=O)c1ccccc1)C(=O)c1ccccc1" . inactive

I would be grateful if you could indicate the recorded call for "CCOC(=O)c1c2c(c(O)c3ccccc3c(O)n(Cc3ccc(OC)cc3)c1C)C(=O)C=CC2=O" . inactive

Attribution: PubChem BioAssay (NCI)
